Reported MIC values follow for various compounds
System: Staphylococcus epidermidis
Experiment: Tested in vitro for inhibitory activity against gram positive bacteria Staphylococcus epidermidis CPHL A2 strain
Assay type: functional
assay.readout: MIC (µg/mL)

INSERT INTO measurements (compound, unit_tag, measured) VALUES
  ('NCCSc1cc2c(cc1N)c(=O)c(C(=O)O)cn2C1CC1', 'µg/mL', 128),
  ('NCCN1CCN(c2cc3c(cc2N)c(=O)c(C(=O)O)cn3C2CC2)CC1', 'µg/mL', 64),
  ('Nc1cc2c(=O)c(C(=O)O)cn(C3CC3)c2cc1Cl', 'µg/mL', 128),
  ('C[C@@H]1CN(c2cc3c(cc2N)c(=O)c(C(=O)O)cn3C2CC2)C[C@H](C)N1', 'µg/mL', 2),
  ('CN1CCN(c2cc3c(cc2N)c(=O)c(C(=O)O)cn3C2CC2)CC1', 'µg/mL', 2),
  ('CN1CCN(c2c(N)cc3c(=O)c(C(=O)O)cn(C4CC4)c3c2F)CC1', 'µg/mL', 4),
  ('Nc1cc2c(=O)c(C(=O)O)cn(C3CC3)c2cc1N1CCC(N)C1 (configuration not stated)', 'µg/mL', 128),
  ('CC(C)(C)n1cc(C(=O)O)c(=O)c2cc(N)c(N3CCSCC3)cc21', 'µg/mL', 0.5),
  ('O=C(O)c1cn(C2CC2)c2c(F)c(N3CCSCC3)c(F)cc2c1=O', 'µg/mL', 0.06),
  ('Nc1cc2c(=O)c(C(=O)O)cn(C3CC3)c2cc1N1CCC(O)CC1', 'µg/mL', 2),
  ('N#CCN1CCN(c2cc3c(cc2N)c(=O)c(C(=O)O)cn3C2CC2)CC1', 'µg/mL', 64),
  ('Nc1cc2c(=O)c(C(=O)O)cn(C3CC3)c2cc1N1CCSCC1', 'µg/mL', 1),
  ('Nc1cc2c(=O)c(C(=O)O)cn(C3CC3)c2cc1N1CCSC1', 'µg/mL', 64),
  ('CN1CCN(c2nc3c(c(N)c2N)c(=O)c(C(=O)O)cn3C2CC2)CC1', 'µg/mL', 2),
  ('CN1CCN(c2cc3c(cc2N)c(=O)c(C(=O)O)cn3-c2ccc(F)cc2)CC1', 'µg/mL', 8),
  ('O=C(O)c1cn(C2CC2)c2cc(N3CCNCC3)c(F)cc2c1=O', 'µg/mL', 0.06),
  ('CC(C)(C)n1cc(C(=O)O)c(=O)c2cc(N)c(N3CCc4ccccc43)cc21', 'µg/mL', 4),
  ('CC(C)(C)n1cc(C(=O)O)c(=O)c2cc(N)c(N3CCN(c4ccccn4)CC3)cc21', 'µg/mL', 1),
  ('CN1CCN(c2c(F)c(N)c3c(=O)c(C(=O)O)cn(C4CC4)c3c2F)CC1', 'µg/mL', 0.12),
  ('Nc1cc2c(=O)c(C(=O)O)cn(C3CC3)c2cc1NC1CC1', 'µg/mL', 128),
  ('Nc1cc2c(=O)c(C(=O)O)cn(C3CC3)c2c(F)c1N1CCSCC1', 'µg/mL', 0.5),
  ('Nc1cc2c(=O)c(C(=O)O)cn(C3CC3)c2cc1N1CCNCC1', 'µg/mL', 16),
  ('Nc1cc2c(=O)c(C(=O)O)cn(C3CC3)c2cc1N1CCCC1', 'µg/mL', 128),
  ('CC(C)(C)n1cc(C(=O)O)c(=O)c2cc(N)c(N3CCc4ccccc4C3)cc21', 'µg/mL', 0.5),
  ('CN1CCN(c2nc3c(cc2N)c(=O)c(C(=O)O)cn3C2CC2)CC1', 'µg/mL', 4),
  ('CC(C)(C)n1cc(C(=O)O)c(=O)c2cc(N)c(N3CCCC3)cc21', 'µg/mL', 8),
  ('CC1CN(c2cc3c(cc2N)c(=O)c(C(=O)O)cn3C2CC2)CCN1 (configuration not stated)', 'µg/mL', 4);
